# testedSystem: Rap guanine nucleotide exchange factor 3 (Homo sapiens) (UniProt O95398)
# Sequence (O95398 whole entry, looked up): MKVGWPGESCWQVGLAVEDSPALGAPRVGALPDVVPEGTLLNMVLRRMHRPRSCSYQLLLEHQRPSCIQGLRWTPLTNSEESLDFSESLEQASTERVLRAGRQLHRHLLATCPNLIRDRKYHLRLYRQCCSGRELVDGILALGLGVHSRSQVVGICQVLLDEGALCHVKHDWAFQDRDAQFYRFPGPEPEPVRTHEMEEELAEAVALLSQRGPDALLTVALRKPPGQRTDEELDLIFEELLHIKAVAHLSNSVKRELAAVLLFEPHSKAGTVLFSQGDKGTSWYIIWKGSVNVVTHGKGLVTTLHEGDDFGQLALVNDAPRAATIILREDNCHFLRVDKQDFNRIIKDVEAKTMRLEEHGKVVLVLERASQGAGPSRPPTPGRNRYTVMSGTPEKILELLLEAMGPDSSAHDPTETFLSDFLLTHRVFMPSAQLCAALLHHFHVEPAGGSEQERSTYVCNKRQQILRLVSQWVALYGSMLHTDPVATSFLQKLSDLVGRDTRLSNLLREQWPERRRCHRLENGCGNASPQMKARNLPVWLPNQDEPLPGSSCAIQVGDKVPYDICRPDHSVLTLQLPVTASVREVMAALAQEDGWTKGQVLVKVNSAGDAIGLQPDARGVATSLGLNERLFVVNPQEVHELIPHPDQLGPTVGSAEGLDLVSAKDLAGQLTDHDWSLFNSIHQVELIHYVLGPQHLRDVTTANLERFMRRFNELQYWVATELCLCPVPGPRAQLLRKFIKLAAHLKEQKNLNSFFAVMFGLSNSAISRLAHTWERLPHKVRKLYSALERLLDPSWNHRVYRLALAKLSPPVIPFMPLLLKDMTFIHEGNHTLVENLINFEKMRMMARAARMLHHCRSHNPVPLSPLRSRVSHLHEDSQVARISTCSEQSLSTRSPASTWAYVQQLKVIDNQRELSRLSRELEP
# method: Validation qHTS for agonist of cAMP-regulated guanine nucleotide exchange factor 3 (EPAC1); note: % is set by controls: 0 for no effect and ±100 for the full control effect; nearly all actives have a fitted effect of over 70% in size
# conditionDetails: EPAC1 Rap1b BODIPY-GDP exchange, fluorescence; hits give high values, percent of cAMP control response
The campaign covered roughly 16,000 compounds. About 160 (1%) were called active. Another 8% or so got no clear call; they are omitted. The sample holds actives, similar compounds and a random draw of the others, so the mix is not that of the screen.
readoutType: max response (%)

O=c1c(O)c(-c2ccc(O)cc2)oc2ccccc12 = -32.1
O=C(c1ccncc1)N1CCC2(CCN(Cc3cc(C(F)(F)F)cc(C(F)(F)F)c3)CC2)CC1 = -125
COC(=O)[C@@H]1C[C@H](NC(=O)c2ccccc2C(F)(F)F)CN1Cc1cccc(O)c1 = -10.1
COc1ccccc1C(=O)N[C@@H]1c2ccccc2C2(CCN(Cc3nc(C(C)C)cs3)CC2)[C@H]1O = 12.9
CCc1nc2cc(C(=O)NCC3CCS(=O)(=O)C3)cc(NC(=O)c3ccccc3OC)c2n1C (stereo unspecified) = -13.5
Cc1cccc(CN2Cc3cccc4c3[C@H](C=CC4)CC2=S)c1 = 29.3
COC1[C@H](OC(N)=O)C(O)[C@H](Oc2ccc3c(O)c(NC(=O)c4ccc(O)c(CC=C(C)C)c4)c(=O)oc3c2C)OC1(C)C (stereo partly specified) = 12.3
Cc1nc2cnc(Nc3ccccc3)nc2n(Cc2ccc(F)cc2)c1=O = 15.4
Cc1cnc(C(=O)N2CCOc3ccc(CN4CCCC(C(=O)c5cccnc5)C4)cc3C2)[nH]1 (stereo unspecified) = -8.53
O=C(C[n+]1cc(Br)cc2ccccc21)c1ccc(F)cc1 = 6.56
CN(C)c1ccc(/C=C/c2c3ccccc3nc3ccccc23)cc1 = 23.9
O=C(c1csnn1)N1CCC2(CCN(Cc3nccs3)CC2)CC1 = -44.7
NC(=O)C(=O)N/N=C/c1ccc([N+](=O)[O-])o1 = -37.2
COCCn1c(=O)c(-c2cccs2)nc2cnc(N3CCN(C)CC3)nc21 = 9.88
N[C@@H](C(=O)O)c1ccc(P(=O)(O)O)cc1 = -5.54
Nc1nc(/C(=C/CC(=O)O)C(=O)N[C@@H]2C(=O)N3C(C(=O)O)=CCS[C@H]23)cs1 = 13.2
COc1ccc(/C=C2\NC(=O)[C@@H]3Cc4ccccc4CN3C2=O)cc1 = 5.8
NC(=O)c1sc(-c2ccsc2)cc1N = -9.78
CC(=O)Nc1ccccc1-c1nc(CNC(=O)c2ccc(Cl)cc2)c(C)o1 = -0.968
COc1ccccc1-c1nc(N2CCN(C)CC2)c2ccccc2n1 = -31.8
CC(=O)N1CCC2(CC1)CCN(c1ccncc1)CC2 = -44.5

###

# testedSystem: Rap guanine nucleotide exchange factor 3 (Homo sapiens) (UniProt O95398)
# method: Validation qHTS for agonist of cAMP-regulated guanine nucleotide exchange factor 3 (EPAC1); note: % is set by controls: 0 for no effect and ±100 for the full control effect; nearly all actives have a fitted effect of over 70% in size
# conditionDetails: EPAC1 Rap1b BODIPY-GDP exchange, fluorescence; hits give high values, percent of cAMP control response
Screen size: about 16,000 compounds; about 160 (1%) were called active. Another 8% or so got no clear call; they are omitted. This excerpt belongs to a sample that is enriched for actives.
Param threshold (-40%) applies to max response; output yes (1) when value >= threshold, no (0) when value < threshold.

CN1CCN(c2ncncc2-c2ccc(C(=O)N(C)C)cc2)CC1 = yes (1)
Fc1cccc(/C=N\N=C/c2cccc(F)c2)c1 = yes (1)
O=C(c1ccc(F)cc1)C1CCN(CCCCc2ccccc2)CC1 = yes (1)
CC(C)NC(=O)N1CCCC2(CCN(C(=O)c3cccn3C)CC2)C1 = no (0)
COc1ccc(Oc2ncc3nc(-c4ccc(F)cc4)c(=O)n(C)c3n2)cc1 = no (0)

// data source = PubChem BioAssay AID1645883
